ENDPOINT LABEL: melting point

# annotated cases, reported melting point shown
Sure, the documented melting point for COc1ccc(-c2cc(=S)n(Cc3ccc(F)cc3F)nc2-c2ccc(OC)cc2)cc1 is 175 to 176 °C

Sure, the documented melting point for COC(=O)[C@H](O)CCCc1ccc(OCc2nc(-c3ccco3)oc2C)c(OC)c1 is 80 to 81 °C

Sure, the documented melting point for Cc1ccc(S(=O)(=O)N2CCCC2c2ccc(F)cc2)cc1Cl (racemic) is 134 °C

Sure, the documented melting point for CCCOC(=O)C1=C(C)NC(C=O)=C(C(=O)OC)C1c1ccccc1C#N (configuration not stated) is 138 to 141 °C

Here are 2 compounds. What values of melting point were reported for them?
1. CC1=C(C(=O)NCc2ccncc2)SCN1n1ccc(O)cc1=O
2. O=Cc1c(Cl)ccc(C2OCCO2)c1Cl

Reply:
275 to 278 °C
96 to 98 °C

Sure, the documented melting point for CCCS(=O)(=O)c1ccc2c(c1)C(=O)C(Br)C2 (configuration not stated) is 87 to 89 °C

###

Kindly state melting point for each of the entries shown.

# annotated cases, reported melting point shown
Sure, the documented melting point for CN(C)C(=S)SC(C[N+](=O)[O-])c1ccc(Cl)cc1Cl (stereo unspecified) is 127 to 128 °C

Sure, the documented melting point for CN1CCCN(Cc2nc3ccccc3[nH]2)CC1 is 152 to 155 °C

Here are 4 compounds. What values of melting point were reported for them?
1. N#Cc1cc([N+](=O)[O-])ccc1NC(=O)C(F)(OC(F)(F)C(F)(F)C(F)(F)F)C(F)(F)F (stereo unspecified)
2. CCn1c(=O)c(-c2c(Cl)cccc2Br)cc2cnc(Nc3ccccc3)nc21
3. CCN(CC)c1ccc(-c2cc(-c3ccc(C(=O)O)cc3)ccc2OCCCCO)cc1C(C)(C)C
4. CCOC(=O)C(F)Cc1ccc(OCCN(C)c2nc3ccccc3o2)cc1 (stereo unspecified)

Reply:
96 °C
210 to 214 °C
165 °C
65 to 67 °C

Here are 5 compounds. What values of melting point were reported for them?
1. O=[N+]([O-])c1c(Cl)cccc1-c1nc2ccccc2n1CC(O)CO (stereo unspecified)
2. NS(=O)(=O)c1ccc(N2N=C(C(F)(F)F)CC2c2ccc(F)cc2F)cc1 (stereo unspecified)
3. COc1cc(OC)c(N2CCCC2)cc1/C=C/C(=O)c1ccc(S(=O)(=O)NCC(=O)O)cc1
4. CCOC(=O)C(=O)CC(=O)c1cn(Cc2ccc(F)cc2)c2cc(F)ccc2c1=O
5. C#CCN1C(=O)c2cccc3cccc1c23

Reply:
["188 to 189 °C", "161 to 162 °C", "155 to 158 °C", "151 to 152 °C", "183 to 186 °C"]

###

Kindly state melting point for each of the entries shown.

# annotated cases, reported melting point shown
Sure, the documented melting point for NCc1cc(-c2ccc(C(F)(F)F)cc2)no1 is 59 °C

Sure, the documented melting point for Cc1cccnc1-c1ccc(Cl)cc1Cl is 38 to 42.8 °C

Sure, the documented melting point for O=C(O)CCCCCCCCCCCCCCCI is 71 to 72 °C

Sure, the documented melting point for CCCSc1ncc(CC(NC(=O)c2ccccc2)C(=O)O)n1Cc1ccccc1Cl (configuration not stated) is 210 to 212 °C

Sure, the documented melting point for Cc1cnc2c(NC(=O)c3c(Cl)cccc3Cl)cccc2c1N1CCNC1=O is > 250 °C

Sure, the documented melting point for CC(C)(N)CNc1ncc2ncnc(Nc3ccc(F)c(Cl)c3)c2n1 is 205 to 207 °C

Sure, the documented melting point for CCOC(=O)c1cc2c(Cl)ncnc2[nH]1 is 219 to 221 °C

Sure, the documented melting point for CC(C)OC(=O)c1ncn2c1CN(C)C(=O)c1cc(F)ccc1-2 is 243 to 244 °C

Here are 7 molecules. What values of melting point were reported for them?
1. CC1OC(O)CC(NC(=O)C(F)(F)F)C1C (configuration not stated)
2. O=[N+]([O-])c1ccc(C#Cc2ccccc2)c(-c2cc([N+](=O)[O-])ccc2C#Cc2ccccc2)c1
3. COc1ccc2cc(C(C)C(=O)ON(C(N)=O)C(C)c3cc4ccccc4s3)ccc2c1 (configuration not stated)
4. O=c1[nH]c(-c2ccc(Cl)c(Cl)c2)co1
5. CC(C)(C)OC(=O)Cn1c(C(=O)O)cc2cnccc21
6. C=CCOc1ccc(-c2ccc(C(=O)OCC)cc2)cc1
7. Cc1ccc(S(=O)(=O)N[C@@H]2COC(=O)[C@H]2Cc2ccccc2)cc1

Reply:
1: 132 to 134 °C; 2: 216 to 218 °C; 3: 62 to 70 °C; 4: 262 to 263 °C; 5: 265 °C; 6: 89 to 92 °C; 7: 108 to 109 °C

Here are 2 molecules. What values of melting point were reported for them?
1. CN(C)C1CCCC(C(=O)N2CCC(c3[nH]nc4c3C(=O)c3c(NC(=O)NN5CCOCC5)cccc3-4)CC2)C1 (configuration not stated)
2. CCCc1nn(C)c(C(N)=O)c1NC(=O)c1cc([N+](=O)[O-])cnc1OCC

Reply:
1: 153 to 155 °C; 2: 251 to 253 °C

###

ENDPOINT LABEL: melting point

# annotated cases, reported melting point shown
Sure, the documented melting point for COc1cc(C(C)C)c2c(c1)S(=O)(=O)N(COc1cc(C)nn1C)C2=O is 146 to 147 °C

Sure, the documented melting point for COc1cc2c(cc1OC)C(=O)C(=O)N(CCCN(C)CCCSc1ccccc1)CC2 is 77 to 79 °C

Sure, the documented melting point for CCOC(=O)c1ccc(NCCCCCCCCCCCOc2ccccc2)cc1 is 83 to 87 °C

Here are 2 compounds. What values of melting point were reported for them?
1. Cc1cc(C)cc(Cc2[nH]c(=O)[nH]c(=O)c2C(C)C)c1
2. COCOc1ccc(CCNC(=O)/C(C#N)=C/c2cccnc2)cc1

Reply:
213 to 214 °C
105 to 106 °C

###

Kindly state melting point for each of the entries shown.
Residues, ends and D or L forms follow the SMILES beside them. *: point of attachment. For = O=C*

Sure, the documented melting point for O=C(NOC1CCCCO1)c1ccc(-c2ccc3ncnc(Nc4ccc(OCc5cccc(F)c5)c(Cl)c4)c3c2)o1 (stereo unspecified) is 221 °C

Sure, the documented melting point for CCOc1cc2c(cc1OC)C(c1ccc(C(=O)N(C(C)C)C(C)C)cc1)=N[C@@H]1CCSC[C@H]21 is 84 to 89 °C

Sure, the documented melting point for CCCc1nc2c(N)nc3cc(OCc4c(C)noc4C)ccc3c2s1 is 178 to 180 °C

Sure, the documented melting point for O=C(Nc1cccc(S(=O)(=O)CCO)c1)c1cnn2c(C(F)F)cc(-c3ccc(C(F)(F)F)cc3)nc12 is 205 °C

Sure, the documented melting point for CC(Cc1c[nH]c2ccccc12)(NC(=O)OC1C2CC3CC(C2)CC1C3)C(=O)NCC(CSCC(=O)O)c1ccccc1 (stereo unspecified) is 78 to 93 °C

Sure, the documented melting point for COc1ccc(C=CC(=O)Nc2c(CCO)nc3c(C)cc(C)cc3c2-c2ccccc2Cl)cc1OC is 115 to 116 °C

Sure, the documented melting point for OCC1OC(n2cnc3c(NCc4ccccc4)nc(Cl)nc32)CC1O (stereo unspecified) is 147 °C

Sure, the documented melting point for COC(=O)C(Cc1ccccc1)NC(=O)C(CC(=O)O)NC=O (stereo not drawn) (For-Asp-Phe-OMe; configuration not given here) is 124 °C

Here are 3 molecules. What values of melting point were reported for them?
1. CSC1C(=O)Nc2c(Oc3cccc4ccccc34)cccc21 (stereo unspecified)
2. CNc1cc(Oc2ccc(NC(=O)Nc3ccc(-c4ccncc4)c(C(F)(F)F)c3)cc2)ncn1
3. CCCn1c(=O)c2c(NC(C)=O)n[nH]c2n(Cc2ccccc2)c1=O

Reply:
["134 to 139 °C", "127 to 130 °C", "108 to 110 °C"]

Here are 4 molecules. What values of melting point were reported for them?
1. Cc1c(C(=O)Cl)ccc2c1C(=O)N(C)S2(=O)=O
2. C=C1CCCC2CCC3C(CCC4(C)C3C(C=O)C35OCCOC43OCCO5)C12C (stereo unspecified)
3. O=C(NC(O)C(F)(F)F)c1snc(Cl)c1Cl (stereo unspecified)
4. COc1cc2c(cc1O)C(Cc1c(OC)cccc1[N+](=O)[O-])N(C)CC2 (stereo unspecified)

Reply:
["149 to 150 °C", "192 °C", "90 to 93 °C", "163 to 165 °C"]

Here are 2 molecules. What values of melting point were reported for them?
1. CCN(CC)CCOc1ccc2ncn(/C=C/C(=O)OC)c(=O)c2c1
2. Cc1nc(-c2cccc(Nc3ccc(I)cc3N)c2)cs1

Reply:
1. 131 to 133 °C
2. 151 to 152 °C

Here are 4 molecules. What values of melting point were reported for them?
1. CSC(=O)c1cccc2c1[nH]c1ccccc12
2. O=C1CCC(Cn2c(=O)[nH]c3ncc(-c4ccc(O)cc4)nc32)N1 (stereo unspecified)
3. N[C@@H](CSCc1ccc(C(=O)O)cc1)C(=O)O
4. CN1CC(CCCl)Sc2ncccc2C1=O (stereo unspecified)

Reply:
122 to 123 °C
338 to 340 °C
> 260 °C
97 to 100 °C

Data origin, for the record: a melting point compilation (Tetko et al.; mined from patent text by program, amines drawn as free bases though some values may be those of a salt)
